Target: Sodium/hydrogen exchanger 9B2 (Homo sapiens)
Sequence (Q86UD5 whole entry): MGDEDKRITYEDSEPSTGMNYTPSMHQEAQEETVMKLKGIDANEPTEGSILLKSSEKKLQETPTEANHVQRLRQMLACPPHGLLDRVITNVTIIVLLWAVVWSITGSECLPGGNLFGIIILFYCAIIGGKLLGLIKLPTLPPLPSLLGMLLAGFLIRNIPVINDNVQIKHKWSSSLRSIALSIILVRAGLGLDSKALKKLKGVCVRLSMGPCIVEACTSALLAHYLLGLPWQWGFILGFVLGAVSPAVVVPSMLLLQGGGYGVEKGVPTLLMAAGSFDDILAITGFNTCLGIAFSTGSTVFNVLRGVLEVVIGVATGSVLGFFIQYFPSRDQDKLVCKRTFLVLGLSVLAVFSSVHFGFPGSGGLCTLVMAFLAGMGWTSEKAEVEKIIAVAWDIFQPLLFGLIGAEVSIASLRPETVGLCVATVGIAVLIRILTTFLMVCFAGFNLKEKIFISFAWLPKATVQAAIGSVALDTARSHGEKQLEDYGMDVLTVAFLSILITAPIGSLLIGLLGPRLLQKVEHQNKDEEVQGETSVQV
Experiment: Inhibition of the Sodium/Hydrogen Exchanger-Like Domain-Containing Protein 2 (NHA2, SLC9B2) as assessed by a sensor pH-sensitive genetically encoded fluorescent sensor (pHAxensor) in HEK-293 cells stably transfected with SLC9B2 (PubChem AID: 1794821)
pIC50: −log10 of the molar value.
MEASURED ATTRIBUTE: pIC50

- O=C(CCc1ccc(O)cc1)c1c(O)cc(O)cc1O: 4.05
